- Tested on: OVCAR-5
- assay.name: NCI tumour cell line growth inhibition, 48 h
Active and inactive are the calls of the source. Cut-off read from the data, not from the text of the source: active = GI50 up to about 1.1 µM and inactive = higher.
reported.endpoint: GI50

Solved cases below.
COc1ccc(Oc2nc(C#CC(C)(C)O)nc(Oc3ccc(OC)cc3)n2)cc1; 4.72 µM (inactive)
Oc1cccc2c(Cl)ccnc12; 5.22 µM (inactive)
CC(=O)Oc1c(C)cc2c(c1C)C(C)CN2C(C)=O (stereo unspecified); > 100 µM (inactive)
COc1ccc2c(c1)-c1nc(=S)n(CCN(C)C)c3ccc([N+](=O)[O-])c(c13)N2; 3.13 µM (inactive)
COC(=O)c1cc(CNCCc2c[nH]c3ccccc23)on1; > 100 µM (inactive)

Please examine the following record next.
# query: GI50 of entry C=C1c2nc3ccccc3n2C=C(c2ccc(Cl)cc2)N1c1ccccc1
26.5 µM (inactive)
